Experiment: MTT cytotoxicity in MRC-5 cells
Assay type: cell-based
Conditions: human, MRC-5 lung diploid fibroblast cells, 25 μM, read-out: percentage of viability, 72 h
Rule for this label: label 1 means viability at 72 h, 25 µM is less than 90%; label 0 means viability at 72 h, 25 µM is at least 90%.

Inquiry: Is the reported viability at 72 h, 25 µM for CC#Cc1ccc(C(=O)Nc2ccc(C3CC3N)cc2)cc1.Cl (stereo not drawn) strictly below 90%?
Reply text: label 0

Inquiry: Regarding CN1CCN(c2cc(C(=O)Nc3ccc(C4CC4N)cc3)ccc2NC(=O)OCc2ccccc2)CC1 (stereo not drawn) , kindly confirm whether its viability at 72 h, 25 µM is beneath 90%.
Reply text: label 1

Inquiry: Please let me know if NC1CC1c1ccc(NC(=O)c2ccc(-c3ccccc3)cc2)cc1 (stereo not drawn) shows viability at 72 h, 25 µM below 90%.
Reply text: label 1

Continuing:
Inquiry: Is it true that viability at 72 h, 25 µM reported for C#Cc1ccc(C(=O)Nc2ccc(C3CC3N)cc2)cc1 (stereo not drawn) [MC3935, reference compound] is less than 90%?
Reply text: label 0

Inquiry: viability at 72 h, 25 µM strictly < 90% for this compound? Cl.NC1CC1c1ccc(NC(=O)c2ccc(C#CC3CC3)cc2)cc1 (stereo not drawn)
Reply text: label 1

Reference source for all entries: paper PMC12340956
